Assay: Distribution half life at alpha phase in HIV-seronegative human at 600 mg, po by two compartment model
Assay type: ADME, organism-based
Details: in vivo
Metric Name: half-life (min)

In [3]: df
Out[3]:
                           structure_string  metric_name  measure_unit  recorded_number
0  CC(C)CN(C[C@@H](O)[C@H](Cc1ccccc1)NC(=O)O[C@H]1CCOC1)S(=O)(=O)c1ccc(N)cc1    half-life           min             32.8

###

Assay: Elimination half life at beta phase in HIV-seronegative human at 600 mg, po by two compartment model
Format: ADME, organism-based
Details: in vivo
Metric Name: half-life (h)

                           structure_string  metric_name  recorded_number
0  CC(C)CN(C[C@@H](O)[C@H](Cc1ccccc1)NC(=O)O[C@H]1CCOC1)S(=O)(=O)c1ccc(N)cc1    half-life             15.8

###

Assay: Total clearance in HIV-seronegative human at 600 mg, po by two compartment model
Format: ADME, organism-based
Conditions: in vivo
Metric Name: CL/F

>>> print(df.to_string())
                           structure_string          result
0  CC(C)CN(C[C@@H](O)[C@H](Cc1ccccc1)NC(=O)O[C@H]1CCOC1)S(=O)(=O)c1ccc(N)cc1  19.4 mL/min/kg

Attribution: ChEMBL document CHEMBL1143830
